# Tested on: RT112
# test_details: Proliferation assay using bladder cancer cell lines, RT112
# Format: cell-based, human
# setup_conditions: Homo sapiens, RT-112, 72 h, 72 h culture, CyQuant proliferation assay
pIC50: −log10 of the molar value.
Param threshold (5) applies to pIC50; output 1 (yes) when value >= threshold, 0 (no) when value < threshold.

- compound: "CC(=O)OC1C/C(=C/C=C2\\CCC[C@]3(C)C(C(C)CCCC(C)(C)O)=CCC23)C[C@@H](OC(C)=O)C1 (stereo partly drawn)"
  study_system: "RT112"
  class_name: "1 (yes)"
- compound: "CC(=O)OC1C/C(=C/C=C2\\CCC[C@@]3(C)C2CCC3C2(C/C=C/C(O)(C(F)(F)F)C(F)(F)F)CC2)C[C@@H](OC(C)=O)C1 (stereo partly drawn)"
  study_system: "RT112"
  class_name: "1 (yes)"
- compound: "CC(=O)OC1C/C(=C/C=C2\\CCC[C@]3(C)C(C4(CCCC(C)(C)O)CC4)=CCC23)C[C@@H](OC(C)=O)C1 (stereo partly drawn)"
  study_system: "RT112"
  class_name: "0 (no)"
- compound: "C=C1/C(=C\\C=C2/CCC[C@]3(C)C(C(C)CCCC(C)(C)O)=CCC23)CC(OC(C)=O)C[C@@H]1OC(C)=O (stereo partly drawn)"
  study_system: "RT112"
  class_name: "0 (no)"
- compound: "CC(=O)OC1C/C(=C/C=C2\\CCC[C@]3(C)C(C(C)CC#CC(C)(C)O)=CCC23)C[C@@H](OC(C)=O)C1 (stereo partly drawn)"
  study_system: "RT112"
  class_name: "1 (yes)"
- compound: "C=C1/C(=C\\C=C2/CCC[C@]3(C)C(C(C)CC#CC(OC(C)=O)(C(F)(F)F)C(F)(F)F)=CCC23)CC(OC(C)=O)C[C@@H]1OC(C)=O (stereo partly drawn)"
  study_system: "RT112"
  class_name: "0 (no)"
- compound: "C=C1/C(=C\\C=C2/CCC[C@]3(C)C(C(C)C/C=C/[C@@](C)(O)C(F)(F)F)=CCC23)CC(OC(C)=O)C[C@@H]1OC(C)=O (stereo partly drawn)"
  study_system: "RT112"
  class_name: "1 (yes)"
- compound: "CCC(O)(C#CCC(C)C1=CCC2/C(=C/C=C3/CC(OC(C)=O)C[C@H](OC(C)=O)C3)CCC[C@]12C)CC (stereo partly drawn)"
  study_system: "RT112"
  class_name: "1 (yes)"
- compound: "CC(=O)OC1C/C(=C/C=C2\\CCC[C@]3(C)C(C(C)C/C=C\\C(O)(C(F)(F)F)C(F)(F)F)=CCC23)C[C@@H](OC(C)=O)C1 (stereo partly drawn)"
  study_system: "RT112"
  class_name: "1 (yes)"
- compound: "CC(=O)OC1C/C(=C/C=C2\\CCC[C@@]3(C)C2CCC3C2(CC#CC(C)(C)O)CC2)C[C@@H](OC(C)=O)C1 (stereo partly drawn)"
  study_system: "RT112"
  class_name: "0 (no)"
